# TARGET_DESC: TNFα / TNFα receptor (TNFα R1/Fc) (Homo sapiens, UniProt P01375)
# Construct: purchased R&D Systems
# Sequence (P01375 77-233 limits assumed, species assumed): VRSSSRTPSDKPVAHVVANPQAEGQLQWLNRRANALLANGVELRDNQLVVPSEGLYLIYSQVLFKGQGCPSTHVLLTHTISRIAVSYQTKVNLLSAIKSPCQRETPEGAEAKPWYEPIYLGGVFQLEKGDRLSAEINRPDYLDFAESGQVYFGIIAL
# EXPERIMENTAL_PROTOCOL: Inhibition of binding of TNFα to the TNFα receptor (plate ELISA competition)
# CONDITION_PARAMETERS: Table 2; read-out: Activity (IC50, inhibition of TNFα binding to TNFα R1/Fc)
pIC50: −log10 of the molar value. Numbered stars: 1 amine (or outer) side, 2 acyl side, 3 side chain; on linkers, the order of the positions; unused ones are H or OH. Bridge positions count the residues as written; N and C are the ends. Square brackets hold non-standard residues; d marks the D form. Peptide text beside a SMILES is read from it. Phe(4-CF3) = N[C@@H](Cc1ccc(C(F)(F)F)cc1)C(=O)O; dPhe(4-NH2) = Nc1ccc(C[C@@H](N)C(=O)O)cc1; d(hPhe) = N[C@H](CCc1ccccc1)C(=O)O; Suc = O=C(CCC(=O)[*:2])[*:1]; βAla = NCCC(=O)O
OUTCOME_MEASURE: pIC50

INSERT INTO results (compound, target_desc, value) VALUES
  ('O=C(O)CCNC(=O)[C@H]1Cc2ccc(cc2)NC(=O)CCC(=O)N[C@H](CCc2ccccc2)C(=O)N[C@@H](Cc2ccc(C(F)(F)F)cc2)C(=O)N[C@H](Cc2ccccc2)C(=O)N1 [Compound 15] ([d(hPhe)][Phe(4-CF3)][dF][dPhe(4-NH2)][βAla]-OH; linker N-4 via Suc)', 'TNFα / TNFα receptor (TNFα R1/Fc) (Homo sapiens, UniProt P01375)', '4.52 to 5.00');

Prompt: # lookup: pIC50 of O=C1COc2ccc(cc2)C[C@@H](C(=O)N[C@@H](Cc2ccccc2)C(=O)O)NC(=O)[C@H](CCc2ccccc2)NC(=O)[C@@H](Cc2ccc(-c3ccccc3)cc2)NC(=O)[C@H](Cc2ccc(-c3ccncc3)cc2)N1 [Compound 581]
Completion: > 5.00

Prompt: Recorded pIC50 for O=C1COc2ccc(cc2)C[C@@H](C(=O)O)NC(=O)[C@@H](Cc2ccc(-c3ccccc3)cc2)NC(=O)[C@H](Cc2ccc(-c3ccccc3)cc2)NC(=O)[C@@H](Cc2cccs2)N1 [Compound 530] , please?
Completion: < 4.00

Prompt: Which pIC50 is listed for CC(C)(NC(=O)[C@@H]1Cc2ccc(cc2)OCC(=O)N[C@H](Cc2cccs2)C(=O)N[C@@H](Cc2ccc(-c3ccccc3)cc2)C(=O)N[C@H](CCc2ccccc2)C(=O)N1)C(=O)O [Compound 297] ?
Completion: > 5.00
